- System: NCI-H3122
- EXPERIMENT_SUMMARY: relative viability (nuclei count vs DMSO), 5 days (fraction); higher = more cells survive
- REPORTED_CONDITIONS: first compound 0.4 µM
Exercise: state measured relative viability for each of the compounds provided.
Please respond with just the number, no unit label.

## Input Please look at COc1cc(N2CCC(C(N)=O)CC2)ccc1Nc1nc(N)c(Cl)c(Nc2ccccc2S(=O)(=O)C(C)C)n1 [HG-5-88-01] + O=C(c1cc(Cc2n[nH]c(=O)c3ccccc23)ccc1F)N1CCN(C(=O)C2CC2)CC1 [Olaparib] (partner 8 µM) and tell me its recorded relative viability on NCI-H3122.
## Output 0.3

## Input Please look at Clc1ccc(Nc2nnc(Cc3ccncc3)c3ccccc23)cc1 [Vatalanib] + Cc1nc(Nc2ncc(C(=O)Nc3c(C)cccc3Cl)s2)cc(N2CCN(CCO)CC2)n1 [Dasatinib] (partner 0.075 µM) and tell me its recorded relative viability on NCI-H3122.
## Output 0.795

## Input Please look at COc1cc(N2CCC(C(N)=O)CC2)ccc1Nc1nc(N)c(Cl)c(Nc2ccccc2S(=O)(=O)C(C)C)n1 [HG-5-88-01] + CC1(C)CCC(c2ccc(Cl)cc2)=C(CN2CCN(c3ccc(C(=O)NS(=O)(=O)c4ccc(N[C@H](CCN5CCOCC5)CSc5ccccc5)c(S(=O)(=O)C(F)(F)F)c4)cc3)CC2)C1 [Navitoclax] (partner 0.5 µM) and tell me its recorded relative viability on NCI-H3122.
## Output 0.444

## Input Please look at C[C@@H]1CN(CC(=O)Nc2ccc3c(c2)Cc2cccc(-c4cc(=O)cc(N5CCOCC5)o4)c2S3)C[C@H](C)O1 + COc1cccc2cc(-c3nc([C@H]4CC[C@H](C(=O)O)CC4)n4ncnc(N)c34)[nH]c12 [OSI-027] (partner 0.5 µM) and tell me its recorded relative viability on NCI-H3122.
## Output 0.206

## Input Please look at Clc1ccc(Nc2nnc(Cc3ccncc3)c3ccccc23)cc1 [Vatalanib] + CCNC(=O)c1noc(-c2cc(C(C)C)c(O)cc2O)c1-c1ccc(CN2CCOCC2)cc1 [Luminespib] (partner 0.01 µM) and tell me its recorded relative viability on NCI-H3122.
## Output 0.0775

## Input Please look at C[C@@H]1CN(CC(=O)Nc2ccc3c(c2)Cc2cccc(-c4cc(=O)cc(N5CCOCC5)o4)c2S3)C[C@H](C)O1 + Nc1nc2[nH]cc(CCc3ccc(C(=O)N[C@@H](CCC(=O)O)C(=O)O)cc3)c2c(=O)[nH]1 [Pemetrexed] (partner 0.2 µM) and tell me its recorded relative viability on NCI-H3122.
## Output 0.192

## Input Please look at C[C@@H]1CN(CC(=O)Nc2ccc3c(c2)Cc2cccc(-c4cc(=O)cc(N5CCOCC5)o4)c2S3)C[C@H](C)O1 + N=C(N)NC(=N)NCCc1ccccc1 [Phenformin] (partner 250 µM) and tell me its recorded relative viability on NCI-H3122.
## Output 0.365

## Input Please look at COc1cc(N2CCC(C(N)=O)CC2)ccc1Nc1nc(N)c(Cl)c(Nc2ccccc2S(=O)(=O)C(C)C)n1 [HG-5-88-01] + C[C@@H](Oc1cc(-c2cnn(C3CCNCC3)c2)cnc1N)c1c(Cl)ccc(F)c1Cl [Crizotinib] (partner 1 µM) and tell me its recorded relative viability on NCI-H3122.
## Output 0.292

## Input Please look at C[C@@H]1CN(CC(=O)Nc2ccc3c(c2)Cc2cccc(-c4cc(=O)cc(N5CCOCC5)o4)c2S3)C[C@H](C)O1 + CC(=O)Nc1cccc(-n2c(=O)n(C3CC3)c(=O)c3c(Nc4ccc(I)cc4F)n(C)c(=O)c(C)c32)c1 [Trametinib] (partner 0.02 µM) and tell me its recorded relative viability on NCI-H3122.
## Output 0.212

## Input Please look at C[C@@H]1CN(CC(=O)Nc2ccc3c(c2)Cc2cccc(-c4cc(=O)cc(N5CCOCC5)o4)c2S3)C[C@H](C)O1 + Nc1ncn([C@H]2C[C@H](O)[C@@H](CO)O2)c(=O)n1 [Decitabine] (partner 2 µM) and tell me its recorded relative viability on NCI-H3122.
## Output 0.42

## Input Please look at COc1cc(N2CCC(C(N)=O)CC2)ccc1Nc1nc(N)c(Cl)c(Nc2ccccc2S(=O)(=O)C(C)C)n1 [HG-5-88-01] + CC(=O)Nc1cccc(-n2c(=O)n(C3CC3)c(=O)c3c(Nc4ccc(I)cc4F)n(C)c(=O)c(C)c32)c1 [Trametinib] (partner 0.02 µM) and tell me its recorded relative viability on NCI-H3122.
## Output 0.154

## Input Please look at COc1cc(N2CCC(C(N)=O)CC2)ccc1Nc1nc(N)c(Cl)c(Nc2ccccc2S(=O)(=O)C(C)C)n1 [HG-5-88-01] + N=C(N)NC(=N)NCCc1ccccc1 [Phenformin] (partner 250 µM) and tell me its recorded relative viability on NCI-H3122.
## Output 0.146
